- Tested on: E. coli NIHJ
- Experimental Protocol: Minimal inhibitory concentration
- Assay type: cell-based
- Conditions Used: Escherichia coli; II A: E. coli NIHJ
Listed below: MIC values for each entry.
Observable: MIC (µg/mL)

- C#CCSCC(=O)N[C@]1(OC)C(=O)N2C(C(=O)O)=C(COC(C)=O)CS[C@@H]21: 3.1
- CO[C@@]1(NC(=O)CSc2nncs2)C(=O)N2C(C(=O)O)=C(COC(C)=O)CS[C@@H]21: 3.1
- CO[C@@]1(NC(=O)COc2ccon2)C(=O)N2C(C(=O)O)=C(COC(C)=O)CS[C@@H]21: 6.2
- CO[C@@]1(NC(=O)CSc2ncc[nH]2)C(=O)N2C(C(=O)O)=C(COC(N)=O)CS[C@@H]21: 1.5
- CO[C@@]1(NC(=O)CSc2ncc[nH]2)C(=O)N2C(C(=O)O)=C(COC(C)=O)CS[C@@H]21: 12.5
- CO[C@@]1(NC(=O)CSc2ccon2)C(=O)N2C(C(=O)O)=C(COC(C)=O)CS[C@@H]21: 3.1
- CO[C@@]1(NC(=O)CS(C)(=O)=O)C(=O)N2C(C(=O)O)=C(CSc3nnnn3C)CS[C@@H]21: 1.5
- CO[C@@]1(NC(=O)CSCC#N)C(=O)N2C(C(=O)O)=C(COC(N)=O)CS[C@@H]21: 1.5
- CO[C@@]1(NC(=O)CSCN=[N+]=[N-])C(=O)N2C(C(=O)O)=C(COC(C)=O)CS[C@@H]21: 6.2
- C#CCSCC(=O)N[C@]1(OC)C(=O)N2C(C(=O)O)=C(COC(N)=O)CS[C@@H]21: 3.1

----------
Listed below: MIC values for each entry.
- Test system: Shigella flexneri Komagome
- Experimental Protocol: Minimal inhibitory concentration
- Format: cell-based
- Conditions Used: III: Shigella flexneri Komagome; read-out: Minimal inhibitory concentration
Observable: MIC (µg/mL)

* CO[C@@]1(NC(=O)CSc2nnc(C)s2)C(=O)N2C(C(=O)O)=C(COC(N)=O)CS[C@@H]21 | 12.5
* CO[C@@]1(NC(=O)CSc2ncc[nH]2)C(=O)N2C(C(=O)O)=C(COC(C)=O)CS[C@@H]21 | 25
* CO[C@@]1(NC(=O)CSc2nncs2)C(=O)N2C(C(=O)O)=C(CSc3nnnn3C)CS[C@@H]21 | 1.5
* CO[C@@]1(NC(=O)COc2ccon2)C(=O)N2C(C(=O)O)=C(COC(C)=O)CS[C@@H]21 | 12.5
* CO[C@@]1(NC(=O)CSc2nncs2)C(=O)N2C(C(=O)O)=C(COC(N)=O)CS[C@@H]21 | 3.1
* CO[C@@]1(NC(=O)CSc2ncc[nH]2)C(=O)N2C(C(=O)O)=C(CSc3nnnn3C)CS[C@@H]21 | 6.2
* CO[C@@]1(NC(=O)CSCC#N)C(=O)N2C(C(=O)O)=C(CSc3nnnn3C)CS[C@@H]21 | 0.8
* CO[C@@]1(NC(=O)CSCC#N)C(=O)N2C(C(=O)O)=C(COC(C)=O)CS[C@@H]21 | 3.1

----------
- Tested on: Klebsiella neumoniae 806
- Experimental Protocol: Minimal inhibitory concentration
- Format: cell-based
- Conditions Used: IV A: Klebsiella neumoniae 806; read-out: Minimal inhibitory concentration
Listed below: log10 of MIC values for each entry.
Observable: log10 of MIC (log10 of the value in µg/mL)

* CO[C@@]1(NC(=O)CSc2ncc[nH]2)C(=O)N2C(C(=O)O)=C(CSc3nnnn3C)CS[C@@H]21 | 0.79
* C#CCSCC(=O)N[C@]1(OC)C(=O)N2C(C(=O)O)=C(CSc3nnnn3C)CS[C@@H]21 | 0.49
* CO[C@@]1(NC(=O)CSCC#N)C(=O)N2C(C(=O)O)=C(COC(N)=O)CS[C@@H]21 | -0.40
* CO[C@@]1(NC(=O)CSc2nnc(C)s2)C(=O)N2C(C(=O)O)=C(COC(N)=O)CS[C@@H]21 | 0.79
* CO[C@@]1(NC(=O)CS(C)(=O)=O)C(=O)N2C(C(=O)O)=C(CSc3nnnn3C)CS[C@@H]21 | -0.10
* CO[C@@]1(NC(=O)CSc2nncs2)C(=O)N2C(C(=O)O)=C(CSc3nnnn3C)CS[C@@H]21 | 0.18
* CO[C@@]1(NC(=O)CSc2nncs2)C(=O)N2C(C(=O)O)=C(COC(C)=O)CS[C@@H]21 | 0.49
* C#CCSCC(=O)N[C@]1(OC)C(=O)N2C(C(=O)O)=C(COC(C)=O)CS[C@@H]21 | 0.79
* CO[C@@]1(NC(=O)CSc2ncc[nH]2)C(=O)N2C(C(=O)O)=C(COC(C)=O)CS[C@@H]21 | 1.10
* CO[C@@]1(NC(=O)CSc2nnc[nH]2)C(=O)N2C(C(=O)O)=C(COC(N)=O)CS[C@@H]21 | 0.79
* CO[C@@]1(NC(=O)COc2ccon2)C(=O)N2C(C(=O)O)=C(COC(C)=O)CS[C@@H]21 | 0.79
* CO[C@@]1(NC(=O)CSc2ncc[nH]2)C(=O)N2C(C(=O)O)=C(COC(N)=O)CS[C@@H]21 | 0.49
* CO[C@@]1(NC(=O)CSc2nncs2)C(=O)N2C(C(=O)O)=C(COC(N)=O)CS[C@@H]21 | 0.49
* CO[C@@]1(NC(=O)CSc2ccon2)C(=O)N2C(C(=O)O)=C(COC(C)=O)CS[C@@H]21 | 0.49

----------
Listed below: MIC values for each entry.
- Tested on: Shigella flexneri Komagome
- Experimental Protocol: Minimal inhibitory concentration
- Format: cell-based
- Conditions Used: III: Shigella flexneri Komagome; read-out: Minimal inhibitory concentration
Observable: MIC

- CO[C@@]1(NC(=O)CSc2ncc[nH]2)C(=O)N2C(C(=O)O)=C(COC(N)=O)CS[C@@H]21: 3.1 µg/mL
- C#CCSCC(=O)N[C@]1(OC)C(=O)N2C(C(=O)O)=C(CSc3nnnn3C)CS[C@@H]21: 3.1 µg/mL
- CO[C@@]1(NC(=O)CSCN=[N+]=[N-])C(=O)N2C(C(=O)O)=C(COC(C)=O)CS[C@@H]21: 6.2 µg/mL
- CO[C@@]1(NC(=O)CSc2nnc(C)s2)C(=O)N2C(C(=O)O)=C(CSc3nnnn3C)CS[C@@H]21: 6.2 µg/mL
- CO[C@@]1(NC(=O)CSCC#N)C(=O)N2C(C(=O)O)=C(COC(N)=O)CS[C@@H]21: 3.1 µg/mL
- CO[C@@]1(NC(=O)CS(C)(=O)=O)C(=O)N2C(C(=O)O)=C(CSc3nnnn3C)CS[C@@H]21: 1.5 µg/mL
- CO[C@@]1(NC(=O)CSc2nncs2)C(=O)N2C(C(=O)O)=C(COC(C)=O)CS[C@@H]21: 6.2 µg/mL
- CO[C@@]1(NC(=O)CSc2nnc[nH]2)C(=O)N2C(C(=O)O)=C(COC(N)=O)CS[C@@H]21: 12.5 µg/mL
- C#CCSCC(=O)N[C@]1(OC)C(=O)N2C(C(=O)O)=C(COC(C)=O)CS[C@@H]21: 6.2 µg/mL
- CO[C@@]1(NC(=O)CSc2ccon2)C(=O)N2C(C(=O)O)=C(COC(C)=O)CS[C@@H]21: 6.2 µg/mL
